# Target Entity: T1, receptor-binding domain (RBD) of the wild-type SARS-CoV-2 spike protein (SARS-CoV-2, UniProt P0DTC2 333-527)
# T1 construct: also called SARS-CoV-2 RBD
# Assay Overview: BLI
# Test Parameters: both partners purified
Listing of recorded pKd by entry.
Note: pKd values are expressed as the negative base-10 logarithm of concentration in M.

Prompt: # query: pKd of entry hRBD9 (antibody, V domains shown) VH: EVQLVESGGGLIQPGGSLRLSCAASGLTVSSNYMNWVRQAPGKGLEWVSVLYSGGSTYYADSVKGRFTISRDNSKNTLYLQMNSLRAEDTAVYYCARDLVAYGMDVWGQGTTVTVSS VL: DIQLTQSPSFLSASVGDRVTITCRASQGISSDLAWYQQKPGKAPKLLIYAASTLQSGVPSRFSGSGSGTEFTLTISSLQPEDFATYYCQQLNSYPTFGQGTRLEIK
Response: 9.90

Prompt: Ok, now hRBD15 (antibody, V domains shown) VH: QVQLVQSGAEVKKPGASVKVSCKASGYTFTSQYMHWVRQAPGQGLEWMGIINPSGGSTSYAQKFQGRVTMTSDTSTSTVYMELSSLRSEDTAVYYCARDIYFVPARGGFDPWGQGTLVTVSS VL: EIVLTQSPGTLSLSPGERATLSCRASQSIISSYLAWYQQKPGQAPRLLIYGASSRATGIPDRFSGSGSGTDFTLTISRLEPEDFAVYYCQQSGSAPRYTFGQGTKLEIK
Response: 10.42

Prompt: Ok, now hRBD6 (antibody, V domains shown) VH: QVQLQQWGAGLLKPSETLSLSCAVYGGAFSDYYWSWIRQPPGKGLEWIGEIDLSGSTNYNPSLKSRVTISVDTSKNQFSLKLISVTAADTAVYYCARTHLIGYCSGGSCYSGPDPSNWFDPWGQGTLVTVSS VL: SSELTQDPAVSVALGQTVRITCQGDSLRSYYASWYQQKPGQAPVLVIYGKNNRPSGIPDRFSGSSSGNTASLTITGAQAEDEADYYCNSRDTSGHHPVFGGGTKLTVL
Response: 8.29

API: the following record is the query input.
Prompt: # query: pKd of entry hRBD5 (antibody, V domains shown) VH: QVQLQQWGAGLLQPSETLSLTCAVYGGSFSDYYWSWIRQPPGRGLEWIGEIDHSGSTNYNPSLKSRVTILVDTSKNQFSLKLSSVTAADTAVYYCARAHLIGHCGDGGCYSGPDPSSWFDPWGQGTLVIVSS VL: SSELTQDPAVSVALGQTVRITCQGDSLRRYFASWYQQKPGQAPVLVIYGKNIRPSGIPDRFSGSSSGNTGSLTITGAQAEDEADYYCHSRDSSGHHPLFGGGTKLTVL
Response: 9.90

Hey, just so you know, these numbers are from paper PMC12167710.
